# maps each entry to its IC50
study.target: CDK2/Cyclin E complex (Homo sapiens, UniProt P24941)
run.description: CDK2/Cyclin E fluorescence-based microfluidic mobility shift assay (CDK2 Biochemical Caliper Assay)
cond: read-out: Biochemical CDK2/CyclinE Caliper IC50
Protocol: Compounds of the present disclosure were tested in a CDK2/Cyclin E fluorescence-based microfluidic mobility shift assay (PerkinElmer). The active wild type CDK2/Cyclin E complex was purchased from Eurofins (14-475). Compound stocks were prepared in DMSO and were serially diluted into 11 concentrations by 3-fold dilution. […] The final reaction components were 0.1 nM CDK2/Cyclin E, 2000 uM ATP and 1.5 uM FL Peptide 18 and 1% DMSO. […] Samples were analyzed using a LabChip EZ reader (PerkinElmer).

molecule=CC1(NC(=O)O[C@H]2CO[C@@H](c3cc(Nc4ccc5c(n4)C(C)(C)NC5=O)n[nH]3)C2)CC1 experimental_result="≤ 100 nM"
molecule="COCc1cc2c(Nc3cc([C@H]4C[C@@H](OC(=O)N5[C@@H](C)CC[C@@H]5C)CO4)[nH]n3)nccn2n1 (single isomer, unassigned)" experimental_result="≤ 100 nM"
molecule=COCc1cc(C(=O)Nc2cc([C@H]3C[C@H](COc4cccnc4)C3)[nH]n2)n(C)n1 experimental_result="1000 to 100000 nM"

Look at this molecule and give its reported IC50. COCc1cc(C(=O)Nc2cc([C@H]3CC[C@@H](Oc4nnccc4C(C)C)CC3)[nH]n2)n(C)n1
≤ 100 nM

Recorded IC50 for CC(C)NC(=O)O[C@@H]1CC[C@H](c2cc(Nc3ncnc4ncsc34)n[nH]2)C1 , please?
≤ 100 nM

Fill in the blank: the reported IC50 of COCc1cc2c(Nc3cc([C@H]4C[C@@H](OC(=O)N[C@@H]5C[C@H]5C)CO4)[nH]n3)nccn2n1 is ____.
≤ 100 nM

----------
Parameter: IC50. Scope: all listed entries.
study.target: CDK2/Cyclin E complex (Homo sapiens)
run.description: CDK2/Cyclin E fluorescence-based microfluidic mobility shift assay (CDK2 Biochemical Caliper Assay)
cond: read-out: Biochemical CDK2/CyclinE Caliper IC50

Consider the reported IC50 for these compounds:
compound="CCOC(=O)c1cc2c(Nc3cc([C@H]4CC[C@@H](OC(=O)NC(C)C)C4)[nH]n3)nc(C)cn2n1 (single isomer, unassigned) [Example 462]" assay_readout=IC50 experimental_result="≤ 100 nM"
compound="Cc1ncccc1O[C@@H]1CC[C@H](c2cc(Nc3ccc4c(c3)C(C)(C)NC4=O)n[nH]2)C1 (single isomer, unassigned) [Example 546]" assay_readout=IC50 experimental_result="≤ 100 nM"
compound="Cc1cc(CC(=O)Nc2cc([C@@H]3CC[C@H](CC(=O)O)C3)[nH]n2)on1 (single isomer, unassigned) [Example 342]" assay_readout=IC50 experimental_result="1000 to 100000 nM"
compound="COCc1cc2c(Nc3cc([C@H]4C[C@@H](OC(=O)N5CC6CC(C6)C5)CO4)[nH]n3)nccn2n1 [Example 733]" assay_readout=IC50 experimental_result="100 to 250 nM"
compound="CC(C)NC(=O)O[C@H]1CC[C@@H](c2cc(N)n[nH]2)C1 (single isomer, unassigned) [Example 418]" assay_readout=IC50 experimental_result="1000 to 100000 nM"

Here is the next item to consider.
Can you share its IC50? I mean this compound: Cc1cc(CC(=O)Nc2cc([C@@H]3CC[C@H](Oc4cccnc4)C3)[nH]n2)on1 (single isomer, unassigned) [Example 340]
1000 to 100000 nM
